system: RARg homodimer (NR concentration 270 nM); experiment: PBM binding z-score (relative to random genomic background probes); higher = stronger binding; sequences stand for … in GC…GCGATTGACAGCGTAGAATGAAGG
Decision: PBM binding z-score compared against 1; not below it gives Y, below it gives N.

*Q* Form field: PBM binding z-score at least 1? Entry: ACTATTACTTGACTTAGGGCAACCGATACGACGC
*A* Y

*Q* Could you verify whether the entry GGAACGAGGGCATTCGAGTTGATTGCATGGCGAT shows PBM binding z-score of no less than 1?
*A* Y

*Q* Does PBM binding z-score meet or surpass 1 for CCGAGTAGGTTATGGGCCATTCAGGCAACGGTGA ?
*A* N
